Origin of values: patent US9963448B2

- ASSAY SYSTEM: mPAD4 (Mus musculus, UniProt Q9Z183)
- Sequence (Q9Z183 whole entry): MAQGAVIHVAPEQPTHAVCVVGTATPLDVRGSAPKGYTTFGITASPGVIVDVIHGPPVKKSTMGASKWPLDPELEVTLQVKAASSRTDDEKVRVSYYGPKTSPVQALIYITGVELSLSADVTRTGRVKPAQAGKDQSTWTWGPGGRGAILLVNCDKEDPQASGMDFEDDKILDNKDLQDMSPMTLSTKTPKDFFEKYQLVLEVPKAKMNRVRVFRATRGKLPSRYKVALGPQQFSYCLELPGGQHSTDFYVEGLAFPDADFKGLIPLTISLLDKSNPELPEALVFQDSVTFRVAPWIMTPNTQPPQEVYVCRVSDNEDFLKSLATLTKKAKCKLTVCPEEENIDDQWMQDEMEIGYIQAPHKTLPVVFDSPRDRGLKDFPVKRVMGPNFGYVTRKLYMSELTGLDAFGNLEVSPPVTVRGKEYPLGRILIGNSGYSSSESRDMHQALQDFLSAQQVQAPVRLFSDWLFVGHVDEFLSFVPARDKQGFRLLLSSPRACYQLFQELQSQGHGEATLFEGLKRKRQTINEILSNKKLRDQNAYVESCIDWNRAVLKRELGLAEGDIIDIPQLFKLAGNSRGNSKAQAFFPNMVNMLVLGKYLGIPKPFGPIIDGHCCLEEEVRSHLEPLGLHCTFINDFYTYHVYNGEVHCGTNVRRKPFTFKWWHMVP
- ASSAY INFO: mPAD4 RFMS PAD4 inhibition assay;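 further: grade E means pIC50 at most 4 and F means pIC50 4.0 to 5.0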
- Format: biochemical
- TEST CONTEXT: mPAD4, RFMS readout; pIC50=−log(IC50); read-out: mPAD4 RFMS pIC50 (converted)
OBSERVED PROPERTY: IC50

Worked cases, answers included:
{"COMPOUND": "CO[C@H]1CCN(C(=O)c2ccc3c(c2)nc(-c2cc4cccnc4n2CC2CC2)n3C)C[C@H]1N (single isomer, unassigned)", "OBSERVED MEASUREMENT": "10 to 100 µM"}
{"COMPOUND": "COc1cc(C(=O)N2CC3CCC2C(N)C3)cc2nc(-c3cc4cccnc4n3CC3CC3)n(C)c12 (stereo not shown) [Compound I-115]", "OBSERVED MEASUREMENT": "< 1 µM"}
{"COMPOUND": "COc1cc(C(=O)N2CC3(CCC3N)C2)cc2nc(-c3cc4cccnc4n3CC3CC3)n(C)c12 (stereo not shown)", "OBSERVED MEASUREMENT": "10 to 100 µM"}

Read the next record carefully.
Enquiry: What IC50 value was documented for this compound, Cn1c(-c2cc3cccnc3n2CC2CC2)nc2cc(C(=O)N3C[C@H]4CC[C@@H]3[C@@H]4N)cc(F)c21 ?
Return: 1 to 10 µM
